Target: T1, hKLRF2 (human, UniProt D3W0D1 1-207)
T1 construct: Overexpressed on HEK293 cells
T1 sequence: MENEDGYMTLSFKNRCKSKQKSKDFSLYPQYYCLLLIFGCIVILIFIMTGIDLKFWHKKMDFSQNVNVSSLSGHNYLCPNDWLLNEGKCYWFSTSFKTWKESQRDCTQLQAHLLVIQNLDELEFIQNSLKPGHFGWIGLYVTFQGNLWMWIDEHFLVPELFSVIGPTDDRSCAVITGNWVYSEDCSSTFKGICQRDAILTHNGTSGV
Test: flow cytometry, HEK293 transfectants, 100 nM antibody;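 also: antibody applied at a saturating level and incubated with cells for 30 min at room temperature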
This listing pairs binders with measured % of CD161 binding.
Numbers only here, please. The scale is %.

Asked: Given Ab12 (antibody, human IgG1, V domains shown, IgG purified from yeast culture) VH: QVQLVESGGGLVKPGGSLRLSCAASGFTFAQYYMSWIRQAPGKGLEWVSYISPSGSTIAYADSVKGRFTISRDNAKNSLYLQMNSLRAEDTAVYYCARSLMATGTHLYFDLWGRGTLVTVSS VL: DIQLTQSPSSVSASVGDRVTITCRASQDISSWLAWYQQKPGKAPKLLIYAASSLQSGVPSRFSGSGSGTDFTLTISSLQPEDFATYYCQQVTSFPPYTFGGGTKVEIK , state its recorded % of CD161 binding.
Given back: 0.055

Asked: Given Ab18 (antibody, human IgG1, V domains shown, IgG purified from yeast culture) VH: QVQLVESGGGLVKPGGSLRLSCAASGFTFSQYYMSWIRQAPGKGLEWVSYISPSGATIAYADSVKGRFTISRDNAKNSLYLQMNSLRAEDTAVYYCARSLMATGTHLYFDLWGRGTLVTVSS VL: DIQLTQSPSSVSASVGDRVTITCRASQGISSWLAWYQQKPGKAPKLLIYAAESLQSGVPSRFSGSGSGTDFTLTISSLQPEDFATYYCQQVTSQPPYTFGGGTKVEIK , state its recorded % of CD161 binding.
Given back: 0.101

Asked: Given Ab9 (antibody, human IgG1, V domains shown) VH: EVQLLESGGGLVQPGGSLRLSCAASGFTFSPYAMSWVRQAPGKGLEWVSAISASGGTTYYADSVKGRFTISRDNSKNTLYLQMNSLRAEDTAVYYCAKPLDSSFWADFDLWGRGTLVTVSS VL: DIQLTQSPSSVSASVGDRVTITCRASQGISSWLAWYQQKPGKAPKLLIYAASSLQSGVPSRFSGSGSGTDFTLTISSLQPEDFATYYCQQHSVLPITFGGGTKVEIK , state its recorded % of CD161 binding.
Given back: 0.028
